target entity: UniProtKB P08842
Sequence (whole entry): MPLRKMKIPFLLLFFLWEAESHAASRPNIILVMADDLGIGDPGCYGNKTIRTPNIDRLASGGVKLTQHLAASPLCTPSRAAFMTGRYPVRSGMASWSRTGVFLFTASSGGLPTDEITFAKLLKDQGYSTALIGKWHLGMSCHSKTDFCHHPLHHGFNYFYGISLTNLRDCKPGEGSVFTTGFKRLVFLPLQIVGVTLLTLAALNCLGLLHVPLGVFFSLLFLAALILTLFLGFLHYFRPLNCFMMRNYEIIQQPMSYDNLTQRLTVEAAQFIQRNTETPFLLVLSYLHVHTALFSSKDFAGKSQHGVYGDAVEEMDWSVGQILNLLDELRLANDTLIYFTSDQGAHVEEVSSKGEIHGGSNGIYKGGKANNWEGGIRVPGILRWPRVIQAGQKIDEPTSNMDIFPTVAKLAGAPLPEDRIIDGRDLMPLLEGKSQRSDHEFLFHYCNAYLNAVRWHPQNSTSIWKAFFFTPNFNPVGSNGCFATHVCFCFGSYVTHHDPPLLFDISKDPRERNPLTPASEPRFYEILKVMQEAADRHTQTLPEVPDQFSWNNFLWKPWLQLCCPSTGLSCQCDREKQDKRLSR
test protocol: In vitro inhibition of Estrone Sulfatase in placental microsomes at a concentration of 100 uM.
condition description: Placenta
// class assignment uses inhibition with these ranges: 0 = under 30%, 1 = from 30% up to 80%, 2 = 80% and over

For NS(=O)(=O)Oc1ccc2c(c1)CCCC2 , which inhibition bin applies?
0

For NS(=O)(=O)Oc1ccc2c(c1)OCC=C2 , which inhibition bin applies?
1

For Cc1cc(=O)oc2cc(OS(N)(=O)=O)c(OS(N)(=O)=O)cc12 , which inhibition bin applies?
0

For NS(=O)(=O)Oc1ccc2c(c1)OC(=O)CC2 , which inhibition bin applies?
1

For NS(=O)(=O)Oc1ccc2c(c1)C(=O)CC2 , which inhibition bin applies?
0

For NS(=O)(=O)Oc1ccc2c(c1)CCC=C2 , which inhibition bin applies?
1

For NS(=O)(=O)Oc1ccc2c(C(F)(F)F)cc(=O)oc2c1 , which inhibition bin applies?
2

For NS(=O)(=O)Oc1ccc2ccc(=O)oc2c1 , which inhibition bin applies?
2

For NS(=O)(=O)Oc1ccc2c(c1)CCCC2=O , which inhibition bin applies?
1

For NS(=O)(=O)Oc1cccc2c1CCC2=O , which inhibition bin applies?
0

For Cc1c(C)c2ccc(OS(N)(=O)=O)c(C)c2oc1=O , which inhibition bin applies?
0

For COc1cc2ccc(=O)oc2cc1OS(N)(=O)=O , which inhibition bin applies?
1

For Cc1cc(=O)oc2cc(OS(N)(=O)=O)ccc12 , which inhibition bin applies?
2

For NS(=O)(=O)Oc1ccc2c(c1)C(=O)CCC2 , which inhibition bin applies?
0

For Cc1c(C)c2ccc(OS(N)(=O)=O)cc2oc1=O , which inhibition bin applies?
2

For Cc1cc(=O)oc2ccc(OS(N)(=O)=O)cc12 , which inhibition bin applies?
0

For NS(=O)(=O)Oc1ccc2c(c1)CCC2=O , which inhibition bin applies?
1

For Cc1cc(=O)oc2cc(O)c(OS(N)(=O)=O)cc12 , which inhibition bin applies?
0

====

target entity: Steryl-sulfatase (Homo sapiens)
test protocol: In vitro inhibition of Estrone Sulfatase in placental microsomes at a concentration of 50 uM.
condition description: Placenta
endpoint name: inhibition (%)
Write the number in % without appending the unit.

Record Cc1c(C)c2ccc(OS(N)(=O)=O)cc2oc1=O . Reported inhibition: 98.8

Record NS(=O)(=O)Oc1ccc2c(c1)OCC=C2 . Reported inhibition: 36.9

Record COc1cc2ccc(=O)oc2cc1OS(N)(=O)=O . Reported inhibition: 42.9

Record NS(=O)(=O)Oc1ccc2ccc(=O)oc2c1 . Reported inhibition: 91.9

Record Cc1c(C)c2ccc(OS(N)(=O)=O)c(C)c2oc1=O . Reported inhibition: 11.5

Record Cc1cc(=O)oc2cc(OS(N)(=O)=O)ccc12 . Reported inhibition: 97.8

Record NS(=O)(=O)Oc1ccc2c(c1)OC(=O)CC2 . Reported inhibition: 15

Record CC1CC(=O)Oc2cc(OS(N)(=O)=O)ccc21 (centres undefined) . Reported inhibition: 70.6

Record NS(=O)(=O)Oc1ccc2c(c1)CCC=C2 . Reported inhibition: 33.2

Record NS(=O)(=O)Oc1ccc2c(c1)C(=O)CCC2 . Reported inhibition: 16.5

Record NS(=O)(=O)Oc1ccc2c(c1)CCCC2=O . Reported inhibition: 54.3

Record NS(=O)(=O)Oc1ccc2c(C(F)(F)F)cc(=O)oc2c1 . Reported inhibition: 94.3

Record NS(=O)(=O)Oc1ccc2c(c1)CCC2=O . Reported inhibition: 37.7
